Test system: SF-539 CNS
test_summary: NCI-60 one-dose screen, 48 h (100 = growth as untreated, 0 = no growth, -100 = all killed)
details: 10 µM unless noted
About 83,000 compounds went through this panel and 20% of them were active in at least one assay; those are over-represented in the sample as a whole. Active and inactive are the calls of the source. Rule for the calls: active = growth percent below 10; inactive = the rest.
assay_endpoint: growth

Answered cases to consult:
{"compound": "C=CC1=C(C)C2=NC1=CC1=NC(=CC3=C(C)C4=C(O)C(C(=O)O)C(=C5NC(=C2)C(C)C5CCC(=O)O)C4=N3)C(CC)=C1C (stereo not given)", "assay_endpoint": "growth", "measured": "106% (inactive)"}
{"compound": "COc1cc(C)cc2oc3oc(=O)c(-c4nc5ccccc5s4)cc3c(=O)c12", "assay_endpoint": "growth", "measured": "83.7% (inactive)"}
{"compound": "O=C(O)c1ccccc1C(F)(F)F", "assay_endpoint": "growth", "measured": "93.7% (inactive)"}
{"compound": "Nc1nc(Cl)c2ncn(Cc3cc4c(cc3I)OCO4)c2n1", "assay_endpoint": "growth", "measured": "46.5% (inactive)"}
{"compound": "CCCn1ccnc1C(O)c1ccc(OCc2ccccc2)c(OC)c1 (stereo not given)", "assay_endpoint": "growth", "measured": "92.8% (inactive)"}

Entry O=C1CC(C(F)(F)F)Cc2nc3ccc(Br)cc3cc21 (stereo not given) — recorded growth = 93.9% (inactive)

Entry `CCCCCn1c(C)cc(/C=C\c2ccc3cc(C)ccc3[n+]2C)c1C` — recorded growth = -85.8% (active)

Entry CCOC(=O)CC(c1ccccc1)C(C#N)c1ccccc1 (stereo not given) — recorded growth = 109% (inactive)

Entry `COc1ccc(/C=C(/C(=O)c2ccc(Cl)cc2)C(=O)C(F)(F)F)cc1` — recorded growth = 108% (inactive)

Entry `COC(=O)c1cc2c(=O)[nH]cc3c2c(n1)CCC3` — recorded growth = 97.3% (inactive)

Entry `CC1=CCc2ccccc21` — recorded growth = 112% (inactive)

Entry `CC1(C)CC(=O)c2c(ccc(C(=O)C[C@@H](N)CO)c2N)O1` — recorded growth = -3.9% (active)

Entry `CCCCCCCCCCCCNC(=S)N/N=C/c1ccccc1O` — recorded growth = 85.4% (inactive)

Entry O=C1CC(c2ccccc2)Cc2nc3ccc(Cl)cc3cc21 (stereo not given) — recorded growth = -12% (active)

Entry `N#C/C(C(=O)c1ccccc1)=C1/C(=O)Nc2ccc(F)cc21` — recorded growth = 96.9% (inactive)

----------
System: SF-268 CNS
test_summary: NCI-60 one-dose screen, 48 h
details: 10 µM unless noted
The panel holds about 83,000 compounds, 20% with a hit somewhere; the sample as a whole holds those more often. The source made the active and inactive calls. Rule for the calls: active = growth percent below 10; inactive = the rest.
// one of 1 (yes) for active, 0 (no) for inactive, no free text

Check out these entries, answers already filled in.
{"compound": "COCc1nc2ccccc2[nH]1", "classification": "0 (no)"}
{"compound": "C[C@H]1[C@H](C)CC[C@]2(C(=O)O)CC[C@]3(C)C(=CC[C@@H]4[C@@]5(C)C/C(=C/c6cccnc6)[C@H](O)C(C)(C)[C@@H]5CC[C@]43C)[C@H]12", "classification": "0 (no)"}

Given `CCOC(=O)C(=Cc1ccccc1[N+](=O)[O-])C(=O)OCC` , state the outcome it received in this test. 0 (no)

Given CC1Cc2c(ncnc2-n2cnc3ccccc32)N(C)c2ccccc21 (stereo not drawn) , state the outcome it received in this test. 0 (no)

Given `CCc1cccc(Cl)c1` , state the outcome it received in this test. 0 (no)

Given CC[C@@](C)(NC(=O)[C@H](C)NC(=O)CCNC(=O)C(C)(C)NC(=O)[C@H](C)NC(=O)[C@@H]1CCCN1C(=O)[C@@](C)(CC)NC(=O)[C@H](Cc1ccccc1)NC(=O)C1CCCN1C(=O)C(C)(C)NC(=O)C1CCCN1C(=O)C(C)(C)NC(C)=O)C(=O)NCCC(=O)N[C@@H](CC(C)C)C(=O)NC(C)(C)C(=O)NCCC(=O)N[C@@H](CC(C)C)C(=O)NC(C)(C)C(=O)NC(C)(C)C(=O)N[C@@H](CC(C)C)C(=O)NCCC(=O)NCO (stereo partly drawn) , state the outcome it received in this test. 1 (yes)

Given `CC1(C)CC[C@]2(C(=O)O)CC[C@]3(C)C(=CC[C@@H]4[C@@]5(C)C/C(=C/c6cccnc6)[C@H](O)C(C)(C)[C@@H]5CC[C@]43C)[C@@H]2C1` , state the outcome it received in this test. 0 (no)

Given `CCCN1CC(c2ccc(OC)c(OC)c2)=C(c2cn(C(=O)OCC)c3ccccc23)C1=O` , state the outcome it received in this test. 0 (no)

Given `CC(C)[C@H]1CCC2=C3CC[C@]45OC(=O)[C@@]6(CCC(C)(C)C[C@H]64)CC[C@@]5(C)[C@]3(C)CC[C@@]21C` , state the outcome it received in this test. 0 (no)

----------
System: 786-0 renal
test_summary: NCI-60 one-dose screen, 48 h
details: 10 µM unless noted
Protocol: Cells are grown in 96 well plates and exposed to the test compound for 48 hours. Compounds are tested at a single concentration, which is 10^-5 M for most compounds. The reported endpoint is percent growth (GI% or GIPRCNT), where numbers from 0 - 100% represent growth inhibition, and numbers from -100% - 0 represent cell death. For example, a value of 40 represents 60% growth inhibition. A value of 0 means no net growth occurred over the course of the experiment. […]
About 83,000 compounds went through this panel and 20% of them were active in at least one assay; those are over-represented in the sample as a whole. The source made the active and inactive calls. Rule for the calls: active = growth percent below 10; inactive = the rest.
// one of active, inactive, no free text

{"compound": "CCOc1ccc(/C=C(\\C#N)c2cc3ccccc3[nH]2)cc1", "classification": "inactive"}

Given `O=[N+]([O-])c1cccc(/C=C/c2ccc3ccccc3n2)c1` , state the outcome it received in this test. inactive

Given `CCCCOC(=O)c1cccc([N+](=O)[O-])c1` , state the outcome it received in this test. inactive

Given N#Cc1ccc(-c2ccc(COc3ccc(CC4SC(=O)NC4=O)cc3)cc2)cc1 (configuration not stated) , state the outcome it received in this test. inactive

Given `N#C/C(C(=O)c1ccccc1)=C1/C(=O)Nc2ccccc21` , state the outcome it received in this test. active

Given `Cc1ccc2c(n1)C(=O)C(Cl)=C(Nc1ccc(N3CCN(C)CC3)cc1)C2=O` , state the outcome it received in this test. inactive

Given `O=c1c2c3c(sc2n2cnnc2n1Cc1ccccc1)CCCC3` , state the outcome it received in this test. inactive

Given `CC(C)(C)OC(=O)N1C=C/C(=C\Cn2cc(-c3ccccc3)nn2)CC1` , state the outcome it received in this test. inactive

Given `COCCCNc1nc(NC(=O)c2cc(OC)cc(OC)c2)cc(-c2cccnc2)n1` , state the outcome it received in this test. inactive

Given `O=C(CSc1nc2ccc([N+](=O)[O-])cc2[nH]1)Nc1cccc(Cl)c1` , state the outcome it received in this test. inactive

Given `COc1ccc(/C=C/C(=C/c2c(O)[nH]c3cc(Br)ccc23)N=O)cc1` , state the outcome it received in this test. inactive

Given CCOC(=O)c1nn(C2CCCCO2)c2ccc(NC(=O)CSc3nc4ccccc4c(=O)[nH]3)cc12 (configuration not stated) , state the outcome it received in this test. inactive

Given `Cc1ccc(S(=O)(=O)Oc2ccc(Br)cc2Br)cc1` , state the outcome it received in this test. inactive

Given CCN(CC)CCSC(=O)C(O)(c1ccccc1)C1CCCC1 (configuration not stated) , state the outcome it received in this test. inactive

Given C/C=C/C1OC23CCCCC2C(C#N)(C(=N)O3)C1(C#N)C#N (configuration not stated) , state the outcome it received in this test. inactive

Given `N/C(=N\c1nc2ccccc2[nH]1)NC(=O)Cc1cccc2ccccc12` , state the outcome it received in this test. inactive

Given `CCC(Br)(CC)C(=O)c1ccc(OCC(=O)O)c(Cl)c1Cl` , state the outcome it received in this test. inactive

Given `CS(=O)(=O)c1cccnn1` , state the outcome it received in this test. inactive

Given `O=S(=O)(NCCNc1nccc(-c2c(-c3cccc(F)c3)nc3occn23)n1)c1ccc(C(F)(F)F)cc1` , state the outcome it received in this test. inactive

Given CC/C=C(\C)C(CCC)(CN=O)C(=O)OCC (configuration not stated) , state the outcome it received in this test. inactive

Given `OC(c1ccc(Cl)cc1)(c1ccc(Cl)cc1)C(O)(c1ccc(Cl)cc1)c1ccc(Cl)cc1` , state the outcome it received in this test. inactive

Given `N#C/C(=C(/O)CCCO)c1nc2ccccc2c(=O)[nH]1` , state the outcome it received in this test. inactive

----------
Parameter growth: see the listing below.
System: OVCAR-8 ovarian
test_summary: NCI-60 one-dose screen, 48 h (100 = growth as untreated, 0 = no growth, -100 = all killed)
details: 10 µM unless noted
This is part of a sample that, as a whole, favours compounds with a hit. Of some 83,000 tested, about 20% had one in any assay. The source made the active and inactive calls. How the source made its calls: active means growth percent below 10; inactive means the rest.

Answered cases to consult:
{"compound": "O=C(Nc1ccc(Oc2ccc(F)cc2)c(Cl)c1)c1cccnn1", "subject_of_test": "OVCAR-8 ovarian", "growth": "71.3% (inactive)"}
{"compound": "COc1ccc2nc3cc(Cl)ccc3c(Nc3ccc(O)cc3)c2c1", "subject_of_test": "OVCAR-8 ovarian", "growth": "68.5% (inactive)"}
{"compound": "O=C(Nc1cccc(F)c1)c1cc(=O)[nH]c2cc(Br)ccc12", "subject_of_test": "OVCAR-8 ovarian", "growth": "71.8% (inactive)"}
{"compound": "CCOc1cc(/C=N\\NC(=O)N/N=C/c2ccc(O)c(OCC)c2)ccc1O", "subject_of_test": "OVCAR-8 ovarian", "growth": "52% (inactive)"}
{"compound": "Cn1cc(-c2noc(-c3cn(C)c4ncc(F)cc34)n2)c2cc(Br)ccc21", "subject_of_test": "OVCAR-8 ovarian", "growth": "55.2% (inactive)"}

The value of growth recorded for `C=C(C)[C@@H]1CC[C@]2(c3ncc(C)o3)CC[C@]3(C)[C@H](CC[C@@H]4[C@@](C)(CCC#N)[C@H](C(=C)C)CC[C@]43C)[C@@H]12` when tested on OVCAR-8 ovarian reads -78.1% [100 µM] (active)

The value of growth recorded for `CC1(C)[C@@H](NOCCCN)CC[C@]2(C)[C@H]3C(=O)C=C4[C@@H]5C[C@](C)(C(=O)O)CC[C@]5(C)CC[C@@]4(C)[C@]3(C)CC[C@@H]12` when tested on OVCAR-8 ovarian reads -25.9% [100 µM] (active)

The value of growth recorded for `C=C(C)[C@@H]1CC[C@]2(C(=O)NCCCN)CC[C@]3(C)[C@H](CC[C@@H]4[C@@]5(C)CC[C@H](O)C(C)(C)[C@@H]5CC[C@]43C)[C@@H]12` when tested on OVCAR-8 ovarian reads -3.81% [100 µM] (active)

The value of growth recorded for `Cc1cccc(C[C@H](NC(=O)Nc2ccc(C)cc2F)C(=O)N[C@@H]2C(=O)N3C[C@H](O)C[C@H]3C(=O)N3CCN(C)C[C@H]3C(=O)N[C@@H](C)C(=O)N3C[C@H](C)C[C@H]3C(=O)O[C@H]2C)c1` when tested on OVCAR-8 ovarian reads 50.8% (inactive)
